TARGET OF ASSAY: Kappa-type opioid receptor (Homo sapiens, UniProt P41145)
Sequence (P41145 whole entry): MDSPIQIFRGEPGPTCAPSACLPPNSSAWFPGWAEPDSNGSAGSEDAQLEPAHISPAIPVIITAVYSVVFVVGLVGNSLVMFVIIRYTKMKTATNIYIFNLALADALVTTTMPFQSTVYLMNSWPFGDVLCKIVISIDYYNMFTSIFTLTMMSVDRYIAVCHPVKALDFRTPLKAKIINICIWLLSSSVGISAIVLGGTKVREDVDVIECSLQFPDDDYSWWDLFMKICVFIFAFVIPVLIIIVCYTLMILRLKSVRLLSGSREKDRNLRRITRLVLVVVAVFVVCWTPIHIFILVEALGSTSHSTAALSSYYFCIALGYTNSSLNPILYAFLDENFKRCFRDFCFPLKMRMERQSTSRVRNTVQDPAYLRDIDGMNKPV
TEST METHOD NOTES: Agonist activity at human kappa opioid receptor expressed in CHO cell membranes incubated for 1 hr by [35S]GTPgammaS binding assay
Type: functional
CONDITION NOTES: read-out: EC50
RECORDED ENDPOINT: pEC50
Would you please state pEC50, meaning minus log10 of the concentration in mol/L, as a bare number?

[[record]]
item_smiles = "Oc1ccc2c3c1O[C@H]1c4ncc(-c5ccccc5)cc4C[C@@]4(OCCCC5CCCCC5)[C@@H](C2)N(CC2CC2)CC[C@]314"
number = 7.46

[[record]]
item_smiles = "Oc1ccc2c3c1O[C@H]1c4ncc(-c5ccc(F)cc5)cc4C[C@@]4(OCCCc5ccccc5)[C@@H](C2)N(CC2CC2)CC[C@]314"
number = 7.25

[[record]]
item_smiles = "Oc1ccc2c3c1O[C@H]1c4ncc(-c5ccc(Br)cc5)cc4C[C@@]4(OCCCc5ccccc5)[C@@H](C2)N(CC2CC2)CC[C@]314"
number = 8.26


Next item in the queue.
q: What measured pEC50 is associated with COc1ccc(-c2cnc3c(c2)C[C@@]2(OCCCc4ccccc4)[C@H]4Cc5ccc(O)c6c5[C@@]2(CCN4CC2CC2)[C@H]3O6)cc1 on Kappa-type opioid receptor (Homo sapiens, UniProt P41145)?
a: 8.69
